# Tested on: KM-20L2
# assay_procedure: NCI tumour cell line growth inhibition, 48 h
Activity calls are given as the source filed them. No stated cut-off is given here; in the data, active = GI50 up to about 1.1 µM and inactive = higher.
Your answer must be one of the following: true (active), false (inactive)

As a guide, the following entries are already answered.
Exercise: Give the logged outcome of this assay for the following compound: CCCCN[C@H]1C2C3CC4C5CC(C42)C1(C)C53 (some centres not stated)
Key: false

Exercise: Give the logged outcome of this assay for the following compound: `Cn1cc(C(=O)NCCC(=N)N)cc1NC(=O)C1=[N+](C)C=C(NC(=O)c2cccc(C(=O)NC3=CC(C(=O)Nc4cc(C(=O)NCCC(=N)N)cn4C)=[N+](C)C3)c2)C1`
Key: false

Exercise: Give the logged outcome of this assay for the following compound: `Cc1[nH]c2cc([N+](=O)[O-])ccc2c1[N+](=O)[O-]`
Key: false

Exercise: Give the logged outcome of this assay for the following compound: `Cc1ccc(S(=O)(=O)c2ccc(NC(=O)SCCC(=O)O)cc2)cc1`
Key: false

Exercise: Give the logged outcome of this assay for the following compound: `Cc1cc(NC(=O)NC(=O)c2ccccc2N(C)C)ccc1Oc1ncc(Br)cn1`
Key: true

Next:
Exercise: Give the logged outcome of this assay for the following compound: `O=CN/C=C/c1cccc(O)c1`
Key: false

Exercise: Give the logged outcome of this assay for the following compound: COC(=O)/C(=N\NC(N)=O)C(C(=O)C=C(C)C)C(=O)C(=O)Nc1ccc(Cl)c(Cl)c1 (configuration not stated)
Key: false

Exercise: Give the logged outcome of this assay for the following compound: `COc1ccc(/C=C2/C(=O)N(C(=O)c3ccccc3O)N=C2C)cc1OC`
Key: false

Exercise: Give the logged outcome of this assay for the following compound: O=C(Nc1nc2ccc([N+](=O)[O-])cc2s1)C(=O)C(C(=O)c1ccccc1F)C1OC(=O)c2ccccc21 (configuration not stated)
Key: false

Exercise: Give the logged outcome of this assay for the following compound: COC(=O)/C(=N/NC(=O)C[N+](C)(C)C)C(C(=O)OC)C(=O)C(=O)Nc1ccc(F)cc1 (configuration not stated)
Key: false

Exercise: Give the logged outcome of this assay for the following compound: CC(C)c1cccc(C(C)C)c1NC(=O)C(=O)CC(=O)CC(c1ccccc1)c1c(O)oc2ccccc2c1=O (configuration not stated)
Key: false

Exercise: Give the logged outcome of this assay for the following compound: `COc1ccc(S(=O)(=O)NNS(C)(=O)=O)cc1`
Key: false

----------
# Tested on: SN12C
# assay_procedure: NCI tumour cell line growth inhibition, 48 h
Active and inactive are the calls of the source. No stated cut-off is given here; in the data, active = GI50 up to about 1.1 µM and inactive = higher.
parameter_measured: GI50

Sample records with GI50:
Exercise: API: value(readout= GI50, system= SN12C, query= `Cc1ns/c(=N\C(=S)N(C)C)n1C` )
Key: > 100 µM (inactive)

Exercise: API: value(readout= GI50, system= SN12C, query= `Cn1cc(C(=O)NCCC(=N)N)cc1NC(=O)C1=[N+](C)C=C(NC(=O)c2cccc(C(=O)NC3=CC(C(=O)Nc4cc(C(=O)NCCC(=N)N)cn4C)=[N+](C)C3)c2)C1` )
Key: 88.5 µM (inactive)

Exercise: API: value(readout= GI50, system= SN12C, query= CCOC(=O)C(NC(=O)Nc1ccccc1)(Nc1cccc(Cl)c1)C(F)(F)F (centres undefined) )
Key: > 100 µM (inactive)

Next:
Exercise: API: value(readout= GI50, system= SN12C, query= CN(C)c1c(C2OC(CO)C(O)C2O)c(=O)c1=O (centres undefined) )
Key: > 100 µM (inactive)

Exercise: API: value(readout= GI50, system= SN12C, query= `O=C(Nc1nc2ncn(CCOC(=O)c3ccccc3)c2c(=O)[nH]1)c1ccccc1` )
Key: 11.8 µM (inactive)

Exercise: API: value(readout= GI50, system= SN12C, query= C[N+](C)(C)CCOP(=O)(O)OP(=O)([O-])OCC1CCC(n2ccc(N)nc2=O)O1 (centres undefined) )
Key: > 100 µM (inactive)

Exercise: API: value(readout= GI50, system= SN12C, query= C=C1C(=O)OC2C1CC1OC2C(C)CCC/C(C)=C\CCC1(C)O (centres undefined) )
Key: 19.5 µM (inactive)

Exercise: API: value(readout= GI50, system= SN12C, query= COc1ccc(NC(C)=O)cc1N1C(=O)/C(=C\c2cccc(Oc3ccccc3)c2)S(=O)(=O)C1c1ccccc1 (centres undefined) )
Key: 24.2 µM (inactive)

Exercise: API: value(readout= GI50, system= SN12C, query= `O=C1c2ccccc2-c2cc([N+](=O)[O-])c([N+](=O)[O-])cc21` )
Key: 1.86 µM (inactive)

----------
# Test system: SNB-19
# assay_procedure: NCI tumour cell line growth inhibition, 48 h
Activity calls are given as the source filed them. No stated cut-off is given here; in the data, active = GI50 up to about 1.1 µM and inactive = higher.
Your answer must be one of the following: y = active, n = inactive

As a guide, the following entries are already answered.
Exercise: Give the logged outcome of this assay for the following compound: `COC(=O)c1ccc(N/C=C(/C#N)c2ccsc2)cc1`
Key: n

Exercise: Give the logged outcome of this assay for the following compound: CC(C)(C)c1cc(C2=NNC(c3ccccc3)C2)cc(C(C)(C)C)c1O (stereo not drawn)
Key: n

Exercise: Give the logged outcome of this assay for the following compound: COc1ccc([C@]23CCC4(OCC(C)(C)CO4)[C@H]4CON(O[C@H](O[C@@H]5CCCCC5C(C)(C)c5ccccc5)C2)[C@@H]43)cc1OC (stereo partly drawn)
Key: n

Exercise: Give the logged outcome of this assay for the following compound: `COc1cc(Oc2nc3c(N)cc(C(F)(F)F)cc3nc2-c2ccccc2)cc(OC)c1OC`
Key: n

Exercise: Give the logged outcome of this assay for the following compound: `Cc1[nH]c2cc([N+](=O)[O-])ccc2c1[N+](=O)[O-]`
Key: n

Exercise: Give the logged outcome of this assay for the following compound: CC(C)C1CC(CO)(CNc2nc(N)nc(Cl)c2C=O)C1 (stereo not drawn)
Key: n

Next:
Exercise: Give the logged outcome of this assay for the following compound: `Cc1ccc(S(=O)(=O)n2c3ccc(Br)cc3c3nc4ccccc4nc32)cc1`
Key: n

Exercise: Give the logged outcome of this assay for the following compound: C=C1C(=O)[C@]23[C@H](O)[C@H]1CC[C@H]2[C@@]12CO[C@@]3(O)C[C@@H]1C(C)(C)CC[C@@H]2O [MEGATHYRIN A]
Key: n

Exercise: Give the logged outcome of this assay for the following compound: Cc1cc(Cl)ccc1NC(=O)CCCC(=O)C1CCC/C1=N\NC(=O)CC#N (stereo not drawn)
Key: n

Exercise: Give the logged outcome of this assay for the following compound: C=CCN(N=O)C(=O)N(CCCC(NC(C)=O)C(=O)NCc1ccccc1)Cc1ccccc1 (stereo not drawn)
Key: n

Exercise: Give the logged outcome of this assay for the following compound: `CC(C)=C=CP(=O)(O)c1ccccc1`
Key: n

Exercise: Give the logged outcome of this assay for the following compound: O=c1nc2occc2cn1C1CC(O)C(CO)O1 (stereo not drawn)
Key: n

Exercise: Give the logged outcome of this assay for the following compound: `Cc1cc(=O)[nH]c(-n2[nH]c(C)c(CCO)c2=O)n1`
Key: n

Exercise: Give the logged outcome of this assay for the following compound: `CC(=O)C1=C(C)Cn2c(=O)c3ccccc3c(=O)n2C1`
Key: n

Exercise: Give the logged outcome of this assay for the following compound: `COc1ccc(CCN2CCC(C#N)(c3ccc(OC)c(OC)c3)CC2)cc1OC`
Key: n

Exercise: Give the logged outcome of this assay for the following compound: O=C(O)CCCCC1CCSS1 (stereo not drawn) [LIPOIC ACID, ALPHA]
Key: n

Exercise: Give the logged outcome of this assay for the following compound: O=C(Nc1nc2ccc([N+](=O)[O-])cc2s1)C(=O)C(C(=O)c1ccccc1F)C1OC(=O)c2ccccc21 (stereo not drawn)
Key: n

Exercise: Give the logged outcome of this assay for the following compound: CCOC1C=CCCO1 (stereo not drawn)
Key: n

Exercise: Give the logged outcome of this assay for the following compound: `COc1cccc2cc(C(=O)Nc3ccccc3)c(=N)oc12`
Key: n

----------
# System: MDA-MB-231
# assay_procedure: NCI tumour cell line growth inhibition, 48 h
Calls of active or inactive are those of the source. Rule as the data show it: active = GI50 up to about 1.1 µM and inactive = higher.
parameter_measured: GI50

Sample records with GI50:
Exercise: API: value(readout= GI50, system= MDA-MB-231, query= `CC(C)N/C(=N\C#N)NS(=O)(=O)c1cnccc1NC1CCCCCCC1` )
Key: > 100 µM (inactive)

Exercise: API: value(readout= GI50, system= MDA-MB-231, query= `O=C(CCC(=O)c1ccc(Cl)cc1)NO` )
Key: > 100 µM (inactive)

Exercise: API: value(readout= GI50, system= MDA-MB-231, query= CCOC1C=CCCO1 (stereo unspecified) )
Key: > 100 µM (inactive)

Exercise: API: value(readout= GI50, system= MDA-MB-231, query= `N=C(N)n1nc2c(c1O)CCC2` )
Key: > 100 µM (inactive)

Exercise: API: value(readout= GI50, system= MDA-MB-231, query= `N[C@H]1CCN(c2c(F)cc3c(=O)c(C(=O)O)cn4c3c2Oc2c-4ccc3c2ccc2ccccc23)C1` )
Key: 4.91 µM (inactive)

API: the following record is the query input.
Exercise: API: value(readout= GI50, system= MDA-MB-231, query= O=C1NCC(NC(=O)C(F)(F)F)c2c(Br)sc(Br)c21 (stereo unspecified) )
Key: > 100 µM (inactive)
